The entries below come with measured Comparative binding affinity - Fold increase over parent values attached.
Target: T1, cynomolgus MCSP D3 (cynomolgus, UniProt Q6UVK1 1582-2224 (human entry))
T1 construct: also called cynomolgus homologue; not shown: C-terminal tag
T1 chain: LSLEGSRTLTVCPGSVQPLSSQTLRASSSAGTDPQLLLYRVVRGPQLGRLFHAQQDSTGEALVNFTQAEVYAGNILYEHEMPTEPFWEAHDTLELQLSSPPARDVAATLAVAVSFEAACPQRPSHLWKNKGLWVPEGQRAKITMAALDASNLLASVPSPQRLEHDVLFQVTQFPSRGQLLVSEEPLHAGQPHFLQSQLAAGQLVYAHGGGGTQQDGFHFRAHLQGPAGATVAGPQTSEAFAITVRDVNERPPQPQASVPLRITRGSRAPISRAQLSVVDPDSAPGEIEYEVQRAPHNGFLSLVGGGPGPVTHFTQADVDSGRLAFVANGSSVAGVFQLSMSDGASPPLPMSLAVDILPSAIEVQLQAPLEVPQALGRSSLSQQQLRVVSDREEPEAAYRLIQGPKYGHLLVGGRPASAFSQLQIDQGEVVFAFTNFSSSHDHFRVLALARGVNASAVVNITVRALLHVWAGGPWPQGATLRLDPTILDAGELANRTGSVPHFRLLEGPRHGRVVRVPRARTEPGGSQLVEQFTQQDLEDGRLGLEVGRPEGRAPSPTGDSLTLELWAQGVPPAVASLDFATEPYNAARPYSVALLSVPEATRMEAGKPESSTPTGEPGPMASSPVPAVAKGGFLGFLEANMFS
Assay: SPR (ProteOn XPR36), IgG KD against parental M4-3/ML2
Method: Briefly, carboxymethylated dextran biosensor chips (CM5, GE Healthcare) were activated with N-ethyl-N′-(3-dimethylaminopropyl)-carbodiimide hydrochloride (EDC) and N-hydroxysuccinimide (NHS) according to the supplier's instructions. […] Association rates (kon) and dissociation rates (koff) were calculated using a simple one-to-one Langmuir binding model (ProteOn XPR36 Evaluation Software or Scrubber software (BioLogic)) by simultaneously fitting the association and dissociation sensorgrams. […]
Answer with a number only, understood to be in fold.

Use the examples below as a reference point.
M4-3(D6)/ML2 (IgG) (antibody, V domains shown, Human IgG1 format) VH: QVQLQESGPGLVKPSQTLSLTCTVSGGSITSGYYWNWIRQHPGKGLEWIGYITFDGKNNYNPSLKSRVTISRDTSKNQFSLKLSSVTAADTAVYYCADFDYWGQGTLVTVSS VL: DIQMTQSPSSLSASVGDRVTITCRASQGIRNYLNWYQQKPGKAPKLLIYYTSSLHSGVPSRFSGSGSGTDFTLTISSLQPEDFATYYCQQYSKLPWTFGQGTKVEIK	2
M4-3(A7)/ML2 (IgG) (antibody, V domains shown, Human IgG1 format) VH: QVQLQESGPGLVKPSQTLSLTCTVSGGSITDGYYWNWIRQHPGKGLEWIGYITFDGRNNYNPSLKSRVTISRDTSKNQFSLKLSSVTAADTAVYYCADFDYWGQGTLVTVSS VL: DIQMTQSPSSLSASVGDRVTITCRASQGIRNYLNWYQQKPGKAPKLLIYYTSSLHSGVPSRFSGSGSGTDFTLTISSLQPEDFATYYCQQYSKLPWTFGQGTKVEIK	2

Can you share its Comparative binding affinity - Fold increase over parent? I mean this binder: M4-3/ML2(G3) (IgG) (antibody, V domains shown, Human IgG1 format) VH: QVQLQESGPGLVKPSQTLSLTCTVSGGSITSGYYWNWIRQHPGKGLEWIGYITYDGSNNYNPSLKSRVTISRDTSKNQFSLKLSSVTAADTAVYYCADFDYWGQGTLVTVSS VL: DIQMTQSPSSLSASVGDRVTITCRASQGIRNYLNWYQQKPGKAPKLLIYYTSSLHSGVPSRFSGSGSGTDYTLTISSLQPEDFATYYCQQYSALPWTFGQGTKVEIK
3.3

Ref: patent US20180086849A1
